Reported relative viability by item:
- Tested on: ChaGo-K-1
- Experimental Details: relative viability (nuclei count vs DMSO), 5 days (fraction); higher = more cells survive
- Experimental Parameters: first compound 0.01581 µM
Answer with the value's number alone.

Some solved cases for reference:
# Compound, relative viability
data = [
    ("COc1cc2nccc(Oc3ccc(NC(=O)Nc4cc(C)on4)c(Cl)c3)c2cc1OC [Tivozanib] + Nc1ncn([C@H]2C[C@H](O)[C@@H](CO)O2)c(=O)n1 [Decitabine] (partner 2 µM)", 0.498),
    ("Nc1ccn([C@@H]2O[C@H](CO)[C@@H](O)[C@@H]2O)c(=O)n1 [Cytarabine] + O=C(CCCCCCC(=O)Nc1ccccc1)NO [Vorinostat] (partner 1 µM)", 0.649),
    ("COc1cc2nccc(Oc3ccc(NC(=O)Nc4cc(C)on4)c(Cl)c3)c2cc1OC [Tivozanib] + Nc1nc2[nH]cc(CCc3ccc(C(=O)N[C@@H](CCC(=O)O)C(=O)O)cc3)c2c(=O)[nH]1 [Pemetrexed] (partner 0.2 µM)", 0.271),
]

Please look at the following compound next.
Lookup: Bench note: what relative viability did Nc1ccn([C@@H]2O[C@H](CO)[C@@H](O)[C@@H]2O)c(=O)n1 [Cytarabine] + NC(=O)Nc1cc(-c2cccc(F)c2)sc1C(=O)N[C@H]1CCCNC1 [AZD7762] (partner 0.2 µM) show?
Found: 0.643

---

Reported relative viability by item:
- System: NCI-H2023
- Experimental Details: relative viability (nuclei count vs DMSO), 5 days (fraction); higher = more cells survive
- Experimental Parameters: first compound 500 µM

# Compound, relative viability
records = [
    ("O=C(O)CCCCC(CCSCc1ccccc1)SCc1ccccc1 (stereo not given) [CPI-613] + CS(=O)(=O)CCNCc1ccc(-c2ccc3ncnc(Nc4ccc(OCc5cccc(F)c5)c(Cl)c4)c3c2)o1 [Lapatinib] (partner 2 µM)", 0.0041),
    ("O=C(O)CCCCC(CCSCc1ccccc1)SCc1ccccc1 (stereo not given) [CPI-613] + Cc1nc(NC(=O)N2CCC[C@H]2C(N)=O)sc1-c1ccnc(C(C)(C)C(F)(F)F)c1 [Alpelisib] (partner 2 µM)", 0.0084),
    ("O=C(O)CCCCC(CCSCc1ccccc1)SCc1ccccc1 (stereo not given) [CPI-613] + C[C@]1(O)C[C@@H](c2nc(-c3ccc4ccc(-c5ccccc5)nc4c3)c3c(N)nccn32)C1 [Linsitinib] (partner 1 µM)", 0.0069),
    ("O=C(O)CCCCC(CCSCc1ccccc1)SCc1ccccc1 (stereo not given) [CPI-613] + O=C(c1cc(Cc2n[nH]c(=O)c3ccccc23)ccc1F)N1CCN(C(=O)C2CC2)CC1 [Olaparib] (partner 8 µM)", 0.009),
]

Please look at the following compound next.
Lookup: Bench note: what relative viability did O=C(O)CCCCC(CCSCc1ccccc1)SCc1ccccc1 (stereo not given) [CPI-613] + CC(C)C[C@H](NC(=O)[C@H](Cc1ccccc1)NC(=O)c1cnccn1)B(O)O [Bortezomib] (partner 0.002 µM) show?
Found: 0.0072

---

- Test system: NCI-H1650
- Experimental Details: relative viability (nuclei count vs DMSO), 5 days (fraction); higher = more cells survive
- Experimental Parameters: first compound 0.5 µM
Assay Metric: relative viability
Answer with the value's number alone.

Some solved cases for reference:
# Compound, Measured Target, relative viability
records = [
    ("Nc1ccn([C@@H]2O[C@H](CO)[C@@H](O)[C@@H]2O)c(=O)n1 [Cytarabine] + Nc1ncn([C@H]2C[C@H](O)[C@@H](CO)O2)c(=O)n1 [Decitabine] (partner 2 µM)", "NCI-H1650", 0.172),
    ("COc1cc2nccc(Oc3ccc(NC(=O)Nc4cc(C)on4)c(Cl)c3)c2cc1OC [Tivozanib] + C[C@@H](Oc1cc(-c2cnn(C3CCNCC3)c2)cnc1N)c1c(Cl)ccc(F)c1Cl [Crizotinib] (partner 1 µM)", "NCI-H1650", 0.866),
    ("Nc1ccn([C@@H]2O[C@H](CO)[C@@H](O)[C@@H]2O)c(=O)n1 [Cytarabine] + CC1(C)CCC(c2ccc(Cl)cc2)=C(CN2CCN(c3ccc(C(=O)NS(=O)(=O)c4ccc(N[C@H](CCN5CCOCC5)CSc5ccccc5)c(S(=O)(=O)C(F)(F)F)c4)cc3)CC2)C1 [Navitoclax] (partner 0.5 µM)", "NCI-H1650", 0.18),
]

Lookup: Bench note: what relative viability did COc1cc2nccc(Oc3ccc(NC(=O)Nc4cc(C)on4)c(Cl)c3)c2cc1OC [Tivozanib] + O=C(c1cc(Cc2n[nH]c(=O)c3ccccc23)ccc1F)N1CCN(C(=O)C2CC2)CC1 [Olaparib] (partner 8 µM) show?
Found: 0.863

Lookup: Here is the next compound: COc1cc2nccc(Oc3ccc(NC(=O)Nc4cc(C)on4)c(Cl)c3)c2cc1OC [Tivozanib] + Cc1cc(Nc2cc(N3CCN(C)CC3)nc(Sc3ccc(NC(=O)C4CC4)cc3)n2)n[nH]1 [Tozasertib] (partner 0.1 µM)
Found: 0.422
